METHOD NOTES: Toxicity liver stage against HepG2, at 10uM
Assay type: cell-based
Design: test concentration 10 uM, cell line HepG2-A16-CD81EGFP
TEST SETTINGS: human, HepG2-A16-CD81EGFP cells; read-out: INHIBITION
READOUT LABEL: cytotoxicity at 10 µM (%)
Quick reminder: number only, in %, skip the unit.

### Prompt Give cytotoxicity at 10 µM for O=C1CN([C@@H]2CC[C@@H](NS(=O)(=O)c3ccc(F)cc3)[C@H]2O)CCN1
### Response -2.11

### Prompt Give cytotoxicity at 10 µM for O=C1C[C@@H]2CC[C@H](CN1)N2C1CSCCSC1
### Response -2.26

### Prompt Give cytotoxicity at 10 µM for COC(=O)c1ccccc1NC(=O)c1nc2ccccc2n(C)c1=O
### Response -9.99

### Prompt Give cytotoxicity at 10 µM for Cc1nn(C)c(Cl)c1CNCc1cccnc1N1CCCCC1
### Response -145

### Prompt Give cytotoxicity at 10 µM for Cc1cc(C)n(CC2CCCN2CC(=O)Nc2cc(C(C)C)no2)n1 (configuration not stated)
### Response 0.407

Next:
### Prompt Give cytotoxicity at 10 µM for Cc1cc(C(=O)N2CCCC(C)C2)ccc1NCC(=O)N1CCOCC1 (configuration not stated)
### Response -0.153

### Prompt Give cytotoxicity at 10 µM for Cc1ccc(CN2C[C@@H]3COC[C@@H](NS(C)(=O)=O)[C@@H]3C2)o1
### Response -8.52

### Prompt Give cytotoxicity at 10 µM for COc1ccc(OCC2CCCN(c3nc(CO)cs3)C2)cc1 (configuration not stated)
### Response -0.715

### Prompt Give cytotoxicity at 10 µM for Cc1cnn(CCC(=O)N2CCCC(c3ccn[nH]3)C2)c1 (configuration not stated)
### Response -8.25

### Prompt Give cytotoxicity at 10 µM for O=C(CCc1nccs1)N1CCN(c2ncccn2)CC1
### Response -0.313

### Prompt Give cytotoxicity at 10 µM for Cn1cc(C(=O)N2CCCC2c2ccc3c(c2)OCO3)ccc1=O (configuration not stated)
### Response -14.8

###

Recorded measurements of cytotoxicity at 10 µM, one per entry
METHOD NOTES: Toxicity liver stage against HepG2, at 10uM
Format: cell-based
Parameters: test concentration 10 uM, cell line HepG2-A16-CD81EGFP
TEST SETTINGS: human, HepG2-A16-CD81EGFP cells; read-out: INHIBITION
Quick reminder: number only, in %, skip the unit.

### Prompt Give cytotoxicity at 10 µM for COCC(=O)NC(C)Cc1ccc(Br)cc1 (stereo unspecified)
### Response -1.01

### Prompt Give cytotoxicity at 10 µM for Cn1c(=O)[nH]c(=O)c2c1nc1n2CC(c2ccc(Cl)cc2)O1 (stereo unspecified)
### Response -176

### Prompt Give cytotoxicity at 10 µM for COc1c(-c2ccc(O)cc2)oc2cc(O)cc(O)c2c1=O [ISOKAEMPFERIDE]
### Response 7.8

### Prompt Give cytotoxicity at 10 µM for N#CCCN(CCC#N)C(=O)c1ccc(COc2ccccc2C#N)o1
### Response -16.6

### Prompt Give cytotoxicity at 10 µM for Cc1nc(C)n(CC2CCCN2CCOc2ccc(F)cc2)n1 (stereo unspecified)
### Response 3.06

Next:
### Prompt Give cytotoxicity at 10 µM for CC(C)c1nccn1CCCNC(=O)c1ccc(N(C)C)nc1
### Response 15.7

### Prompt Give cytotoxicity at 10 µM for CC(C)NC(=O)N1CCC2(CC1)CN(C(=O)NC(C)C)CCO2
### Response 11.8

### Prompt Give cytotoxicity at 10 µM for Cc1cccc(C(=O)N2CCCN(CCc3scnc3C)CC2)c1
### Response -2.52

### Prompt Give cytotoxicity at 10 µM for Cn1cc(-c2ncc3c(c2C(=O)O)CCN(Cc2ccco2)C3)cn1
### Response 6.15

### Prompt Give cytotoxicity at 10 µM for COCCNC(=O)NCc1cc(-c2cccs2)n(C2CCCC2)n1
### Response -10.5

### Prompt Give cytotoxicity at 10 µM for Cc1ccc(CCNc2ncnc3sc4c(c23)CCNC4)o1
### Response 3.94

###

METHOD NOTES: Toxicity liver stage against HepG2, at 10uM
Type: cell-based
Design: test concentration 10 uM, cell line HepG2-A16-CD81EGFP
TEST SETTINGS: human, HepG2-A16-CD81EGFP cells; read-out: INHIBITION
Recorded measurements of cytotoxicity at 10 µM, one per entry
Quick reminder: number only, in %, skip the unit.

### Prompt Give cytotoxicity at 10 µM for COCCO[C@H]1CCN(C(=O)c2ccco2)[C@H]1Cc1cnn(C)c1
### Response 2.4

### Prompt Give cytotoxicity at 10 µM for CN(C)S(=O)(=O)N1CCCC1CC(=O)c1cccs1 (stereo unspecified)
### Response -9.44

### Prompt Give cytotoxicity at 10 µM for CC(C(=O)NC1CC1)S(=O)(=O)Cc1noc(C(C)(C)C)n1 (stereo unspecified)
### Response 9.42

### Prompt Give cytotoxicity at 10 µM for CCOCC1CN(S(=O)(=O)N(C)C)Cc2cnn(CC)c21 (stereo unspecified)
### Response 2.26

### Prompt Give cytotoxicity at 10 µM for O=C1CCC2(CCC(NC3CCOC3)CC2)N1Cc1ccccc1 (stereo unspecified)
### Response -5.54

### Prompt Give cytotoxicity at 10 µM for CCN(CC)CCC(=O)NCc1cc2n(n1)CCN(C(=O)N(C)C)C2
### Response -6.72

###

Recorded measurements of cytotoxicity at 10 µM, one per entry
METHOD NOTES: Toxicity liver stage against HepG2, at 10uM
Assay type: cell-based
Set-up: test concentration 10 uM, cell line HepG2-A16-CD81EGFP
TEST SETTINGS: human, HepG2-A16-CD81EGFP cells; read-out: INHIBITION
Quick reminder: number only, in %, skip the unit.

Guide cases for cytotoxicity at 10 µM, answers given:
### Prompt Give cytotoxicity at 10 µM for CCCc1nccn1-c1cccc(CN2CCCC2)c1
### Response -4.87

### Prompt Give cytotoxicity at 10 µM for CCN(CC)S(=O)(=O)N1CC[C@H](c2ccccc2)[C@@H]2[C@H]1CCCCN2C
### Response 3.74

### Prompt Give cytotoxicity at 10 µM for Cc1cc(F)ccc1CNCc1cccc(C(=O)N2CCCC2)c1
### Response -10.8

### Prompt Give cytotoxicity at 10 µM for Cc1cccn2c(=O)cc(CN3CCCC3Cn3cccn3)nc12 (centres undefined)
### Response -4.55

### Prompt Give cytotoxicity at 10 µM for CC(NC(=O)C1CCN(S(N)(=O)=O)CC1)c1cccc(OC(F)F)c1 (centres undefined)
### Response -8.5

Next:
### Prompt Give cytotoxicity at 10 µM for Cc1ccc(C(=O)Oc2cc(=O)n3cccc(C)c3n2)cc1
### Response 5.62

### Prompt Give cytotoxicity at 10 µM for COc1cc2ccn(CCCO)c(=O)c2cc1F
### Response -7.91

### Prompt Give cytotoxicity at 10 µM for CCC(=O)N1CCc2onc(CNS(C)(=O)=O)c2C1
### Response -96.5

### Prompt Give cytotoxicity at 10 µM for Cc1cc2[nH]c(O)nc2cc1NCc1ccccc1
### Response 16

### Prompt Give cytotoxicity at 10 µM for CCOc1nnc(CN2CCN(CCOC)C(CC)C2)s1 (centres undefined)
### Response -5.73

### Prompt Give cytotoxicity at 10 µM for c1ccc(-c2nc3c(c(NCc4n[nH]c5c4CCC5)n2)CCNC3)cc1
### Response -12.8

### Prompt Give cytotoxicity at 10 µM for Cc1cc(N2Cc3cnn(CCO)c3C2)nc(-c2ccccc2)n1
### Response -156

### Prompt Give cytotoxicity at 10 µM for CC(C)c1nnc2n1CCN(Cc1ncc(-c3ccccc3)o1)C2
### Response -12.8

### Prompt Give cytotoxicity at 10 µM for Cc1cc(C)c(CNC(=O)NCC2CCCN2C)c(=O)[nH]1 (centres undefined)
### Response -2.14

### Prompt Give cytotoxicity at 10 µM for c1ccc(Cc2noc(CN3CCCCC3Cn3cccn3)n2)cc1 (centres undefined)
### Response -0.945

### Prompt Give cytotoxicity at 10 µM for Cc1noc([C@H]2C[C@H]3OCC[C@H]3N(Cc3ccncc3)C2)n1
### Response -74.7

### Prompt Give cytotoxicity at 10 µM for CN(C)C(=O)CN1CCN(c2cc(N3CCCC3CO)ncn2)CC1 (centres undefined)
### Response -1.49

### Prompt Give cytotoxicity at 10 µM for CCN(CCS(=O)(=O)c1ccc(Cl)cc1)Cc1ccc(OC)c(OC)c1
### Response 31.7

### Prompt Give cytotoxicity at 10 µM for COCCN1C(=O)CCC12CCCN(Cc1nccs1)CC2 (centres undefined)
### Response -85.1

### Prompt Give cytotoxicity at 10 µM for Cc1ccc(CC(=O)N2CCOC(c3ncc(CN(C)C)[nH]3)C2)s1 (centres undefined)
### Response -3.47

### Prompt Give cytotoxicity at 10 µM for c1ccn(Cc2noc3c2CN(Cc2ccsc2)CC3)c1
### Response 9.37

Entry source: ChEMBL document CHEMBL4513216
